src = ChEMBL document CHEMBL1135905

tested on: Adenosine receptors A1 (Rattus norvegicus) & A2B (Homo sapiens); assay: Selectivity ratio (A1/A2B)
Measured parameter: Ratio

Study these solved cases before continuing.
> print(dat)
                                chem.smiles                             tested.target  data.value
1  CCCn1c(=O)[nH]c2[nH]c(-c3ccc(Br)cc3)nc2c1=O  Adenosine receptors A1 (Rattus norvegicus) & A2B (Homo sapiens)           5
2  CCCn1c(=O)[nH]c2[nH]c(-c3ccc(/C=C/C(=O)O)cc3)nc2c1=O  Adenosine receptors A1 (Rattus norvegicus) & A2B (Homo sapiens)           5
3  CCCCn1c(=O)[nH]c2[nH]c(-c3ccc(OCC(=O)N4CCN(C(=O)OCC)CC4)cc3)nc2c1=O  Adenosine receptors A1 (Rattus norvegicus) & A2B (Homo sapiens)           3
4  CCCn1c(=O)[nH]c2[nH]c(-c3ccc(/C=C/C(=O)OC)cc3)nc2c1=O  Adenosine receptors A1 (Rattus norvegicus) & A2B (Homo sapiens)         3.5
5  CCCn1c(=O)c2nc(-c3ccc(Br)cc3)[nH]c2n(CCC)c1=O  Adenosine receptors A1 (Rattus norvegicus) & A2B (Homo sapiens)           2

1. CCn1c(=O)[nH]c2[nH]c(-c3ccccc3)nc2c1=O
2. CCCCn1c(=O)[nH]c2[nH]c(-c3ccc(Br)cc3)nc2c1=O
3. CCCn1c(=O)c2nc(-c3ccc(I)cc3)[nH]c2n(CCC)c1=O
4. CCCCn1c(=O)[nH]c2[nH]c(-c3ccc(C(=O)O)cc3)nc2c1=O
Prompt: Exam item: list the entries in increasing order of Ratio. Would you mind listing the labels in the order asked for?
Response: 3, 2, 1, 4
(3: 1, 2: 5, 1: 8, 4: 20)

A. CCCCn1c(=O)[nH]c2[nH]c(-c3ccc(S(=O)(=O)O)cc3)nc2c1=O
B. CCCn1c(=O)[nH]c2[nH]c(-c3ccc(OCC(=O)NCCO)cc3)nc2c1=O
Prompt: Which item exceeds the other in Ratio, A or B ? Please identify the chosen entry by its label.
Response: B
(B: 29, A: 7)

1. C#CCn1c(=O)[nH]c2[nH]c(-c3ccc(Br)cc3)nc2c1=O
2. CCCn1c(=O)[nH]c2[nH]c(-c3ccc(OCC(=O)NCCN)cc3)nc2c1=O
3. CCCn1c(=O)[nH]c2[nH]c(C3CCCC3)nc2c1=O
Prompt: Please rank these compounds by Ratio in descending order. Would you mind listing the labels in the order asked for?
Response: 1, 2, 3
(1: 9, 2: 2, 3: 0.4)

----------
molecular target: Adenosine A2 receptor (Homo sapiens) (UniProt P29275+P29274); experiment: Selectivity ratio of the compound( A2A/A2B); assay type: protein assay
Measured parameter: Ratio

Study these solved cases before continuing.
> print(dat)
                                chem.smiles                             tested.target  data.value
1  CCCn1c(=O)[nH]c2[nH]c(-c3ccc(Br)cc3)nc2c1=O  Adenosine A2 receptor (Homo sapiens) (UniProt P29275+P29274)          84
2  CCCCn1c(=O)[nH]c2[nH]c(-c3ccccc3)nc2c1=O  Adenosine A2 receptor (Homo sapiens) (UniProt P29275+P29274)          54
3  CCCCn1c(=O)[nH]c2[nH]c(-c3ccc(OCC(=O)N4CCN(CC)CC4)cc3)nc2c1=O  Adenosine A2 receptor (Homo sapiens) (UniProt P29275+P29274)          53
4  CCCn1c(=O)[nH]c2[nH]c(-c3ccc(OCC(=O)NCCN)cc3)nc2c1=O  Adenosine A2 receptor (Homo sapiens) (UniProt P29275+P29274)          37

a. CCCn1c(=O)c2nc(-c3ccc(I)cc3)[nH]c2n(CCC)c1=O
b. C#CCn1c(=O)[nH]c2[nH]c(-c3ccc(Br)cc3)nc2c1=O
c. CCn1c(=O)[nH]c2[nH]c(-c3ccccc3)nc2c1=O
d. CCCCn1c(=O)[nH]c2[nH]c(-c3ccc(OCC(=O)O)cc3)nc2c1=O
e. CCCCn1c(=O)[nH]c2nc(-c3ccc(CC(=O)O)cc3)[nH]c2c1=O
Prompt: Please rank these compounds by Ratio in descending order. Would you mind listing the labels in the order asked for?
Response: e, d, c, b, a

----------
Ratio listing for selected compounds.
molecular target: Adenosine A2 receptor (Homo sapiens) (UniProt P29275+P29274); assay: Selectivity ratio of the compound( A2A/A2B); type: protein assay

Study these solved cases before continuing.
> print(dat)
                                chem.smiles  data.value
1  CCCn1c(=O)[nH]c2[nH]c(-c3ccc(/C=C/C(=O)OC)cc3)nc2c1=O       > 500
2  CCCn1c(=O)[nH]c2[nH]c(-c3ccc(/C=C/C(=O)O)cc3)nc2c1=O       > 500

Here's the next entry for you.
Note to self: Ratio of CCCCn1c(=O)[nH]c2[nH]c(-c3ccc(OCC(=O)Nc4ccc(C(=O)OC)cc4)cc3)nc2c1=O with Adenosine A2 receptor (Homo sapiens) (UniProt P29275+P29274) was 90
